Data origin: ChEMBL document CHEMBL2321838

Biological target: Neuronal acetylcholine receptor; alpha3/beta4 (Rattus norvegicus, UniProt P04757+P12392)
Sequence (P04757 whole entry): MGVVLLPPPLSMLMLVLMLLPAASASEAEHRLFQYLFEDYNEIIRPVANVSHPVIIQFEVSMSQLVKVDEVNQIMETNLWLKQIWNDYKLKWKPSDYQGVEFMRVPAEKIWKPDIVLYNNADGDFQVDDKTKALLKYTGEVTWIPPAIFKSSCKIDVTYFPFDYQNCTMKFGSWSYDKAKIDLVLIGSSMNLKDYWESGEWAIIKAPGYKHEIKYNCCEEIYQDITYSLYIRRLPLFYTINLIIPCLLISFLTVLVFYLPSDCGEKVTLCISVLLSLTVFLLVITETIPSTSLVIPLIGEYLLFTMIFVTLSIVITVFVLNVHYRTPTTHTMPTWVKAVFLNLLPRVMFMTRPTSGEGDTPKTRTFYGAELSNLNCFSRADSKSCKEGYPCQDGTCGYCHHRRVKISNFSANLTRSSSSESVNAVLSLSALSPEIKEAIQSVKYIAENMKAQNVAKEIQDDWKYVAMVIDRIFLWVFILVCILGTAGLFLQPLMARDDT
Sequence (P12392 whole entry): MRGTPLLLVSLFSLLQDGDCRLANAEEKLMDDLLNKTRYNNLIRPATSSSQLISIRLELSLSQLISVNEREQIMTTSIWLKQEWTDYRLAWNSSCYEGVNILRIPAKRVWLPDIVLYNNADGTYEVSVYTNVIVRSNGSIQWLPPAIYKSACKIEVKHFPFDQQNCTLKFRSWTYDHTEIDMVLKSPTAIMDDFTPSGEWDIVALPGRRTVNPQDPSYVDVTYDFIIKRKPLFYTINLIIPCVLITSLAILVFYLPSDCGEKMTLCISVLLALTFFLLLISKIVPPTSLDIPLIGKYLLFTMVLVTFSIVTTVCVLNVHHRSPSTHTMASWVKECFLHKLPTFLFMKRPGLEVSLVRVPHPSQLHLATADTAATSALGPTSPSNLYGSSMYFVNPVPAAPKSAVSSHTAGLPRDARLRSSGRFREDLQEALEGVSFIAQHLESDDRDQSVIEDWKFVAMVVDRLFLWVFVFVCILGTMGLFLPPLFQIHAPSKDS
Test: Displacement of [3H]-Epibatidine from rat alpha3beta4 nACHR expressed in HEK293 cell membranes by liquid scintillation counting analysis
endpoint: Ki

Incoming: Requested read-out: Ki. Entry: `CCCCC#Cc1cnc(C(F)(F)F)c(OC[C@@H]2CCN2)c1`
Outgoing: > 100 µM

---

Measured Ratio Ki accompanies every entry in the list below.
Species: Rattus norvegicus
Assay: Selectivity ratio of Ki for rat alpha7 nACHR to rat alpha4beta2 nACHR
# print the numeric value only

INSERT INTO assay_data (mol_smiles, meas_value) VALUES
  ('Cc1ncc(C#CC2CC2)cc1OC[C@@H]1CCN1', 16000),
  ('Cc1ncc(C#CCCCCCl)cc1OC[C@@H]1CCN1', 13000);

Incoming: So what's the measured Ratio Ki for this one? `Cc1ncc(C#CCCCCO)cc1OC[C@@H]1CCN1`
Outgoing: 40000

Incoming: Can you share its Ratio Ki? I mean this compound: `CCCCC#Cc1cnc(C)c(OC[C@@H]2CCN2)c1`
Outgoing: 7800

Incoming: Looking for the measured Ratio Ki of `OCCCCC#Cc1cncc(OC[C@@H]2CCN2)c1` , can you help?
Outgoing: 11000
